Assay: Pharmacokinetic (PK) assessment in rats
Format: in vivo
Details: rat, plasma, iv, 2 mg/kg, IV, 2 mg/kg, mean, read-out: Vss
assay_metric: Vd (L/kg)

1) CSc1ccc(-c2nc3cccc(C)n3c2Nc2ccc3c(c2)OCCO3)cc1 [Compound C273-0489]	158
2) CCC1CCCCN1c1cc(C)nc2nc(-c3ccc(C)cc3)nn12 (stereo not drawn) [Compound D245-0091]	4.77
3) COc1cccc(-c2oncc2CN2CCN(C(C)=O)CC2)c1 [Compound T813-0242]	0.65

---

Test: Pharmacokinetic (PK) assessment in rats
Format: in vivo
Conditions: rat, plasma, iv, 3 mg/kg, IV, 3 mg/kg, read-out: AUC0→∞ AUC INF_obs
assay_metric: AUC(0-inf) (ng·h/mL)

1) CCn1c(=O)c(-c2ccc(-c3nc(C)c[nH]3)cc2Cl)cc2cnc(Nc3ccc(N4CCN(C)CC4)cc3)nc21	10100
